FYI, the data here is from the supplement of paper PMC11451515.

System: SEM cells
assay.procedure: AUC of viability dose-response curve (% viability x log10 dose units); higher = less sensitive
conditions.used: RPMI 5 mM glucose + 10% dialyzed FBS; 48 h
Values of AUC of viability dose-response curve strictly less than 400 map to yes (1), and values of at least 400 map to no (0).

[[record]]
molecule = "Cc1cc(Nc2cc(NC(=O)c3c(Cl)cccc3Cl)ccn2)nc(N)n1"
group_label = "yes (1)"

[[record]]
molecule = "CC(C)C1NC(=O)C(NC(=O)C2=C3\\N=C\\4/C(=C(C)\\C(=O)\\C(=C4C(=O)NC5C(C)OC(=O)C(C(C)C)N(C)C(=O)CN(C)C(=O)C6CCCN6C(=O)C(NC5=O)C(C)C)N)OC3=C(C)C=C2)C(C)OC(=O)C(C(C)C)N(C)C(=O)CN(C)C(=O)C7CCCN7C1=O (stereo unspecified)"
group_label = "yes (1)"

[[record]]
molecule = "C[C@H]1COC2=C3N1\\C=C(C(O)=O)/C(=O)C3=CC(=C2N4CCN(C)CC4)F"
group_label = "no (0)"

[[record]]
molecule = "OC[C@H]1O[C@@H](O[C@@H]2O\\C=C(/[C@H]3C\\C=C(CO)/[C@@H]23)C(O)=O)[C@H](O)[C@@H](O)[C@@H]1O"
group_label = "no (0)"

[[record]]
molecule = "CC[C@H](/C=C/[C@@H](C)[C@H]1CC[C@H]2[C@@H]3CC=C4C[C@@H](O)CC[C@]4(C)[C@H]3CC[C@]12C)C(C)C"
group_label = "no (0)"

[[record]]
molecule = "C[C@](Cc1c[nH]c2ccccc12)(NC(=O)OC1C2CC3CC(C2)CC1C3)C(=O)NC[C@H](NC(=O)CCC(=O)O)c1ccccc1 (stereo partly specified)"
group_label = "no (0)"

